Target: Histone-lysine N-methyltransferase EZH2 (Homo sapiens, UniProt Q15910, Y641F)
Sequence (Q15910 whole entry Y641F): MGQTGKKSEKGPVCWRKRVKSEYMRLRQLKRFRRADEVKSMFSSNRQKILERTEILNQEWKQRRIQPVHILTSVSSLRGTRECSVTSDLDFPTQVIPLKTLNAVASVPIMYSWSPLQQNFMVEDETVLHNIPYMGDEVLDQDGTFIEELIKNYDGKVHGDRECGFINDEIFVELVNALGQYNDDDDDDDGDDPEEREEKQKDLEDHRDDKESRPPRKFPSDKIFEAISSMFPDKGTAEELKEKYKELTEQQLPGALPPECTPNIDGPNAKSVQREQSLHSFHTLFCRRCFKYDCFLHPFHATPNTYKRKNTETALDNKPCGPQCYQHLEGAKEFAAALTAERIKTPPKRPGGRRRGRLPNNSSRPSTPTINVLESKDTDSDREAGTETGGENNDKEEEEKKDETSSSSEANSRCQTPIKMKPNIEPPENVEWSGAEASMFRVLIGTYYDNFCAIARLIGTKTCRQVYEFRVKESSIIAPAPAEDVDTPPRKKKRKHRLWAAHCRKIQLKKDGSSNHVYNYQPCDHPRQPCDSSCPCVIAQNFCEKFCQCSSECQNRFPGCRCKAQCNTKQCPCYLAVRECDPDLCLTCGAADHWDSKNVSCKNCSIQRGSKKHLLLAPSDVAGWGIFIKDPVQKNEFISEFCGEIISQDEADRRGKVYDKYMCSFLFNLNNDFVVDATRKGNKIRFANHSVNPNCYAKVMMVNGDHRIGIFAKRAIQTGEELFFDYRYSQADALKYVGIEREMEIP
Give measured IC50 for each item. Keep answers brief.

{"structure string": "CCN(c1cc(-c2ccc(CN3CCN(C)CC3)cc2)cc(C(=O)NCc2c3c(c(C)[nH]c2=O)CCCC3)c1C)C1CCCCC1", "IC50": "182 nM"}

// switching to the query compound
Observed IC50 on Histone-lysine N-methyltransferase EZH2 (Homo sapiens, UniProt Q15910, Y641F) for CCN(c1cc(-c2ccc(N3CCN(C)CC3)cc2)cc(C(=O)NCc2c3c(c(C)[nH]c2=O)CCCC3)c1C)C1CCOCC1 , please.
15 nM
